# testedSystem: human GLP-1R (Homo sapiens (Human), UniProt P43220, L260F)
# Sequence (P43220 24-463 L260F): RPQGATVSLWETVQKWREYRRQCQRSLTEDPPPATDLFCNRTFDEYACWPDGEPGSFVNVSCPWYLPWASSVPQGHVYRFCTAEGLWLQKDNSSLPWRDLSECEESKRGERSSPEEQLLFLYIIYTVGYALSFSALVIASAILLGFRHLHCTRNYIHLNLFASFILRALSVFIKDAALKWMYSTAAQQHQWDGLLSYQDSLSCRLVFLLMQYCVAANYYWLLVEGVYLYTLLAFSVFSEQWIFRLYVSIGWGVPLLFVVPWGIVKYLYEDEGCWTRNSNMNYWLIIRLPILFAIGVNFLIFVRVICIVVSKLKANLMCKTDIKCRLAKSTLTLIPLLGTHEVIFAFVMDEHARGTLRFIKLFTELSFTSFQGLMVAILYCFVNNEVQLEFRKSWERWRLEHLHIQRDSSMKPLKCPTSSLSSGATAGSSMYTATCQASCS
# testDescription: CHO GLP-1R Clone C6—Assay 2: HTRF cAMP cell-based functional agonist assay (low GLP-1R density)
# conditionSummary: CHO GLP-1R Clone C6, cAMP HTRF; geometric mean
propertyLabel: EC50 (nM)
Numbers only; they are read as nM.

## Task GET /values?readout=EC50&item= Cn1c(CN2CCC(c3cccc(OCc4ccc(Cl)cc4F)n3)CC2)nc2cc(F)c(C(=O)O)cc21
## Result 2200

## Task GET /values?readout=EC50&item= CCCn1cnnc1Cn1c(CN2CCC(c3cccc(OCc4ccc(Cl)cc4F)n3)CC2)nc2ccc(C(=O)O)cc21
## Result 110

## Task GET /values?readout=EC50&item= COCCn1c(CN2CCC(c3cccc(OCc4ccc(Cl)cc4F)n3)CC2)nc2ccc(C(=O)O)nc21
## Result 1200

## Task GET /values?readout=EC50&item= C[C@H]1CN(c2cccc(OCc3ccc(C#N)cc3F)n2)CCN1Cc1nc2ccc(C(=O)O)cc2n1Cc1ncco1 [Example 10A-15]
## Result 27

## Task GET /values?readout=EC50&item= O=C(O)c1ccc2nc(CN3CCC(c4cccc(OCc5ccc(Cl)cc5F)n4)CC3)n(CCn3cncn3)c2c1 [Example 11A-17]
## Result 380

## Task GET /values?readout=EC50&item= Cn1ncnc1Cn1c(CN2CCC(c3cccc(OCc4ccc(Cl)cc4F)n3)CC2)nc2ccc(C(=O)O)cc21 [Example 11A-33]
## Result 1400

## Task GET /values?readout=EC50&item= O=C(O)c1ccc2nc(CN3CCC(c4cccc(OCc5ccc(Cl)cc5F)n4)CC3)n(Cc3ccno3)c2c1 [Example 10A-64]
## Result 32

## Task GET /values?readout=EC50&item= COC(C)(C)Cn1c(CN2CCC(c3cccc(OCc4ccc(Cl)cc4F)n3)CC2)nc2ccc(C(=O)O)cc21 [Example 11A-22]
## Result 200

## Task GET /values?readout=EC50&item= COCCn1cnnc1Cn1c(CN2CCC(c3cccc(OCc4ccc(Cl)cc4F)n3)CC2)nc2ccc(C(=O)O)cc21 [Example 11A-19]
## Result 230

## Task GET /values?readout=EC50&item= O=C(O)c1ccc2nc(CN3CCN(c4cccc(OCc5ccc(Cl)cc5F)n4)CC3)n(Cc3ncco3)c2c1 [Example 10A-33]
## Result 24

## Task GET /values?readout=EC50&item= C[C@H]1CN(c2ccc(F)c(OCc3ccc(F)cc3F)n2)CCN1Cc1nc2ccc(C(=O)O)cc2n1C[C@@H]1CCO1 [Example 10A-56]
## Result 16

## Task GET /values?readout=EC50&item= C[C@H]1CN(c2cccc(OCc3ccc(Cl)cc3F)n2)CCN1Cc1nc2ccc(C(=O)O)cc2n1Cc1ncco1 [Example 10A-18]
## Result 33

## Task GET /values?readout=EC50&item= CCn1cncc1Cn1c(CN2CCC(c3cccc(OCc4ccc(C#N)cc4F)n3)CC2)nc2ccc(C(=O)O)nc21 [Example 10A-75]
## Result 13
